study.target: T1, REF6 ZnF1-4 WT (Arabidopsis thaliana, UniProt Q9STM3 1223-1360)
T1 sequence: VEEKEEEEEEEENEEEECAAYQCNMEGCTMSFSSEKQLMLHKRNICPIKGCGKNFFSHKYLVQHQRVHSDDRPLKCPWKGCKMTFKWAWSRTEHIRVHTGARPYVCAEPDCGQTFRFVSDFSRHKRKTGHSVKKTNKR
test.details: MST; MST: 20 mM HEPES pH 7.3, 150 mM NaCl, 0.2 mM TCEP, 0.5% CA-630, 25 C; EMSA: 30 uM protein, 10 uM dsDNA, 20 mM Tris pH 8.0, 100 mM NaCl, 2.5 mM MgCl2, 0.1% CA-630, 10% glycerol, 1 uM ZnSO4, 1 mM DTT, 4 C
cond: protein: recombinant; tags: His6-MBP or GST tag, TEV-cleavable (cleaved when necessary); label: FAM in MST
quantity.kind: pKd
# reply with the number alone; pKd is -log10 of concentration in mol/L

> print(dat)
                                     binder  test.value
1  CUC1-3 (dsDNA) DNA 1: GGACTCTGTTTTAGA DNA 2: TCTAAAACAGAGTCC        6.00

// next entry
Lookup: Note pKd for the binder shown: CUC1-4 (dsDNA) DNA 1: TTACTCTGTTTGTAA DNA 2: TTACAAACAGAGTAA
Found: 5.59

Entry source: paper PMC7105484
